Each entry below carries its reported fraction ligated.
B1: F1*; the commonest letter at each place (parent)
chain: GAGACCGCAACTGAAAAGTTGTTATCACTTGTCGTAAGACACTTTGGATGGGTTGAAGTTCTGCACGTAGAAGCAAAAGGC

- Variants of: B1
- assay: fraction ligated after 30 min (ligated reads / total reads); higher = more ligase activity
- condition.parameters: with F1*sub RNA substrate (template-directed ligation), 42 °C
No unit in the answer, only the number.

T44A A57G: 0.812
A37G A57C: 0.82
A24C T49A: 0.805

What value of measured fraction ligated is listed for T43C A57T ?
0.79

Looking for the measured fraction ligated of G31C A41G , can you help?
0.779

Returns the measured fraction ligated for the input variant. Input: T43A G47A
0.804
